Sourced from ChEMBL document CHEMBL1268971

Test: Antiproliferative activity against human A2780/E6 cells after 72 hrs by CellTiter-Glo assay
Format: functional, cell-based
Conditions: A2780/E6, 72 h
measured attribute: IC50

CN1CCN(c2ccc(OC(F)(F)F)c(Nc3ncc4c(n3)-c3c(c(C(N)=O)nn3C)CC4)c2)CC1 :: 5 nM

###

Experiment: Solubility of the compound at pH 7
Format: physicochemical
Conditions: buffer
Recorded solubility, one value per entry.
measured attribute: solubility (µM)

CN1CCN(c2ccc(OC(F)(F)F)c(Nc3ncc4c(n3)-c3[nH]nc(C(N)=O)c3CC4)c2)CC1 :: 12
Cn1nc(C(N)=O)c2c1-c1nc(Nc3cc([N+]4([O-])CC[N+](C)([O-])CC4)ccc3OC(F)(F)F)ncc1CC2 (centres undefined) :: 48
Cn1nc(C(N)=O)c2c1-c1nc(Nc3cc(N4CCN(C(=O)N5CCNCC5)CC4)ccc3OC(F)(F)F)ncc1CC2 :: 85
